The entries below are paired with their reported inhibition.
# test-details: TLR3 IRF3 reporter activation blockers – cell-based, poly I:C stimulus, luciferase, 10K MLSCN set, primary screen (AID 602277)
# experimental-setup: HEK293-TLR3 RL24 IRF3 luciferase reporter, at 10 µM, hits give high values
Just the number please, in %, no unit attached.

Solved entries:
INSERT INTO measurements (molecule, value_type, obs_value) VALUES
  ('Cc1cc(C)c(NC(=O)CSc2nc3c(c(=O)n2C)SC(C)C3)c(C)c1 (stereo unspecified)', 'inhibition', -13.4),
  ('CCOC(=O)c1ccccc1NC(=O)c1c(O)c2ccccc2n(CC)c1=O', 'inhibition', 9.26),
  ('CC(C(=O)OCn1nnc2ccccc2c1=O)N1C(=O)c2ccccc2C1=O (stereo unspecified)', 'inhibition', 21.1);

Exercise: Report inhibition for "CCn1nnnc1SCC(=O)Nc1nnc(C(C)C)s1" please.
Key: -1.53

Exercise: Need inhibition, item "COCCn1c(C)c(C(=O)O)sc1=S"
Key: -6.08

Exercise: May I ask what inhibition has been recorded for "COC(=O)c1ccccc1NC(=O)Cn1c(-c2nonc2N)nc2ccccc21" ?
Key: 30

Exercise: Dear colleague, I am looking for the recorded inhibition of the following molecule: CCOC(=O)CN1CC23C=CC(O2)C(C(=O)NCc2ccc(F)cc2)C3C1=O (stereo unspecified)
Key: 27.7

Exercise: Sample "CCOc1nc(-c2ccccc2)ccc1-c1noc(-c2cccnc2)n1" — what was its inhibition?
Key: -16

Exercise: Entry "CCOc1ccc(-c2noc(-c3ccncc3)n2)cc1OCC" : reported inhibition = ?
Key: -4.62
